Numbers sourced from PubChem BioAssay.

# test_target: Streptavidin (Streptomyces avidinii)
# experimental_details: compounds binding control protein streptavidin – biophysical, small-molecule microarray, 635/667 nm fluorescence, artefact control for SMM compound annotation, primary screen (AID 1147);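 note: signal reflects streptavidin binding to arrayed compounds as a control protein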
# assay_conditions: higher = more signal
Answer N if composite z-score is under 0.8, and Y if it is 0.8 or more.

compound=COCCOC(=O)N1C(=O)[C@@]2(c3cc(C#CC4=CCCCC4)ccc31)[C@H](c1ccc(OCCO)cc1)N1[C@H](c3ccccc3)[C@H](c3ccccc3)OC(=O)[C@H]1[C@@H]2C(=O)Nc1nc2ccccc2s1 assigned_label=Y
compound="CC(C)OC(=O)C1=CCC(c2cccc(Cl)c2)O1 (stereo unspecified)" assigned_label=N
compound=Cc1ccc(N2C(=O)c3ccccc3[C@@H](C(=O)NC(C)C)[C@@H]2c2ccc(CO)cc2)nc1 assigned_label=N
compound=COC(=O)[C@@]1(Cc2ccc(F)cc2)[C@H]2c3cc(C(=O)N(C)C)n(CCCNc4ccc(C(F)(F)F)cc4Cl)c3C[C@H]2CN1C(=O)c1ccccc1 assigned_label=Y
compound=COc1ccc([Si](C)(C)[C@@H]2[C@@H](CCO)O[C@]3(C(=O)N(Cc4ccc(N5C(=O)c6cccc7cccc5c67)cc4)c4ccccc43)[C@H]2C)cc1 assigned_label=N
compound="CC(C)C(CO)N1C(=O)[C@@H]2[C@H]3C(=O)OCC=C[C@H]3OC23C=CCN(c2ccc4ccccc4c2)C(=O)[C@@H]13 (stereo partly specified)" assigned_label=N
compound=CCOC(=O)C1=C[C@@H](C(C)(C)C)N(S(=O)(=O)c2ccc(C)cc2)[C@H]1c1ccc(Cl)c(Cl)c1 assigned_label=Y
compound=O=C1O[C@H](c2ccccc2)[C@H](c2ccccc2)N2[C@H]1[C@@H](C(=O)NC[C@H](O)c1ccccc1)[C@]1(C(=O)Nc3ccc(C#CC4=CCCCC4)cc31)[C@H]2c1ccc(O)cc1 assigned_label=N
compound=CC(C)NC(=O)[C@@H]1c2ccccc2C(=O)N(C2CCCCC2)[C@H]1c1ccc(CO)cc1 assigned_label=N
compound=[N-]=[N+]=Nc1ccccc1[C@@H]1OC(c2ccc(OCCCO)cc2)=N[C@]1(CCS(=O)(=O)c1ccccc1)C(=O)O assigned_label=Y
compound=C=CC[C@@]1(C(=O)NCc2ccccc2)N=C(c2ccc(OCCCO)cc2)O[C@@H]1c1ccccc1CN=[N+]=[N-] assigned_label=N
compound=COCCOC(=O)N1C(=O)[C@@]2(c3cc(C#CCCO)ccc31)[C@H](C(=O)NC[C@H](O)c1ccccc1)[C@H]1C(=O)O[C@H](c3ccccc3)[C@H](c3ccccc3)N1[C@@H]2c1ccc(OCCO)cc1 assigned_label=N
compound=O=C1O[C@@H](c2ccccc2)[C@@H](c2ccccc2)N2[C@@H](c3ccccc3OCCO)[C@]3(C(=O)Nc4ccc(C#CC5(O)CCCCCC5)cc43)[C@@H](C(=O)NC[C@H](O)c3ccccc3)[C@H]12 assigned_label=N
compound="COc1ccc(C(O)C2C=CC3C(=O)N(c4ccccc4)C(=O)C3N2Nc2ccccc2)c2ccccc12 (stereo unspecified)" assigned_label=N
compound="CCN(CC)c1ccc(N2CC=CC34O[C@@H]5/C=C\\CCC(C)OC(=O)C5[C@H]3C(=O)N(CCCCCCO)[C@@H]4C2=O)cc1 (stereo partly specified)" assigned_label=N
compound=CCCC[C@@H]1C[C@H]1[C@@H](NC(=O)c1ccccc1)c1ccccc1 assigned_label=N
compound=[N-]=[N+]=NCc1ccccc1[C@H]1OC(c2ccc(OCCCO)cc2)=N[C@@]1(Cc1ccccc1)C(=O)O assigned_label=Y
compound=CCCNC(=O)[C@@]1(C)c2ccccc2C(=O)N(Cc2cc(C(F)(F)F)cc(C(F)(F)F)c2)[C@H]1c1ccc(CO)cc1 assigned_label=N
compound="O=C(NCC(O)CO)[C@@]1(Cc2ccccc2)N=C(c2ccc(OCCCO)cc2)O[C@H]1c1ccccc1 (stereo partly specified)" assigned_label=Y
compound="CN1C(=O)C2C=CC(C(O)C=Cc3ccc([N+](=O)[O-])cc3)N(N3CCCCC3)C2C1=O (stereo unspecified)" assigned_label=Y
compound=C=CCN1Cc2ccccc2C[C@@]2(COC(c3ccc(OCCCO)cc3)=N2)C1=O assigned_label=N
